Test system: Clostridium difficile ATJ ribotype 014/20
Experiment: MIC, plate drop assay, C. difficile ATJ ribotype 014/20
Format: cell-based
Conditions: C. difficile ATJ ribotype 014/20
readout: MIC-fold improvement vs. vancomycin
Give the figure by itself; no unit, no explanation.

{"columns": ["structure-as-smiles", "MIC-fold improvement vs. vancomycin"],
 "data": [
  ["CN[C@H](CC(C)C)C(=O)N[C@H]1C(=O)N[C@@H](CC(N)=O)C(=O)N[C@H]2C(=O)N[C@H]3C(=O)N[C@H](C(=O)N[C@H](C(=O)NCC(=O)Nc4ccc(Nc5ccccc5)cc4)c4cc(O)cc(O)c4-c4cc3ccc4O)[C@H](O)c3ccc(c(Cl)c3)Oc3cc2cc(c3O[C@@H]2O[C@H](CO)[C@@H](O)[C@H](O)[C@H]2O[C@H]2C[C@](C)(N)[C@H](O)[C@H](C)O2)Oc2ccc(cc2Cl)[C@H]1O", 22],
  ["CN[C@H](CC(C)C)C(=O)N[C@H]1C(=O)N[C@@H](CC(N)=O)C(=O)N[C@H]2C(=O)N[C@H]3C(=O)N[C@H](C(=O)N[C@H](C(=O)NCC(=O)Nc4ccc(C)cc4)c4cc(O)cc(O)c4-c4cc3ccc4O)[C@H](O)c3ccc(c(Cl)c3)Oc3cc2cc(c3O[C@@H]2O[C@H](CO)[C@@H](O)[C@H](O)[C@H]2O[C@H]2C[C@](C)(N)[C@H](O)[C@H](C)O2)Oc2ccc(cc2Cl)[C@H]1O", 5.6]
]}

Let's switch to this compound now.
Inquiry: Hello, I am looking for reported MIC-fold improvement vs. vancomycin with Clostridium difficile ATJ ribotype 014/20 for `CCCCc1ccc(NC(=O)CNC(=O)[C@H]2NC(=O)[C@H]3NC(=O)[C@H](NC(=O)[C@@H]4NC(=O)[C@H](CC(N)=O)NC(=O)[C@H](NC(=O)[C@@H](CC(C)C)NC)[C@H](O)c5ccc(c(Cl)c5)Oc5cc4cc(c5O[C@@H]4O[C@H](CO)[C@@H](O)[C@H](O)[C@H]4O[C@H]4C[C@](C)(N)[C@H](O)[C@H](C)O4)Oc4ccc(cc4Cl)[C@H]3O)c3ccc(O)c(c3)-c3c(O)cc(O)cc32)cc1` . Could you help?
Reply text: 22

###

Listed compounds paired with reported pIC50
System: human cervix carcinoma (HeLa) cells
Assay: Cytostatic activity, HeLa cell proliferation
Format: cell-based
Details: mean ± SD of three experiments; highest concentration tested 250 µM; 4 days; read-out: Toxicity (IC50) HeLa
Lab note: report pIC50 as minus log10 of the concentration in molar units, number only.

Take a look at these entries with their results.
{"columns": ["compound", "readout", "val"],
 "data": [
  ["CN[C@H](CC(C)C)C(=O)N[C@H]1C(=O)N[C@@H](CC(N)=O)C(=O)N[C@H]2C(=O)N[C@H]3C(=O)N[C@H](C(=O)N[C@H](C(=O)NCC(=O)Nc4ccc(Cl)cc4Cl)c4cc(O)cc(O)c4-c4cc3ccc4O)[C@H](O)c3ccc(c(Cl)c3)Oc3cc2cc(c3O[C@@H]2O[C@H](CO)[C@@H](O)[C@H](O)[C@H]2O[C@H]2C[C@](C)(N)[C@H](O)[C@H](C)O2)Oc2ccc(cc2Cl)[C@H]1O [Vanc-14]", "pIC50", 3.83],
  ["CN[C@H](CC(C)C)C(=O)N[C@H]1C(=O)N[C@@H](CC(N)=O)C(=O)N[C@H]2C(=O)N[C@H]3C(=O)N[C@H](C(=O)N[C@H](C(=O)NCC(=O)Nc4ccc(C)cc4C)c4cc(O)cc(O)c4-c4cc3ccc4O)[C@H](O)c3ccc(c(Cl)c3)Oc3cc2cc(c3O[C@@H]2O[C@H](CO)[C@@H](O)[C@H](O)[C@H]2O[C@H]2C[C@](C)(N)[C@H](O)[C@H](C)O2)Oc2ccc(cc2Cl)[C@H]1O [Vanc-15]", "pIC50", 4.06],
  ["CNC(CC(C)C)C(=O)NC1C(=O)NC(CC(N)=O)C(=O)NC2C(=O)NC3C(=O)NC(C(=O)NC(C(=O)NCCCNC(=O)c4ccc5cc(O)ccc5c4)c4cc(O)cc(O)c4-c4cc3ccc4O)C(O)c3ccc(c(Cl)c3)Oc3cc2cc(c3OC2OC(CO)C(O)C(O)C2OC2CC(C)(N)C(O)C(C)O2)Oc2ccc(cc2Cl)C1O (stereo not drawn) [Vanc-30]", "pIC50", 4.35]
]}

Now for another entry.
Inquiry: Reported pIC50 for CNC(CC(C)C)C(=O)NC1C(=O)NC(CC(N)=O)C(=O)NC2C(=O)NC3C(=O)NC(C(=O)NC(C(=O)NCC(=O)Nc4ccc5c(c4)C(=O)c4ccccc4-5)c4cc(O)cc(O)c4-c4cc3ccc4O)C(O)c3ccc(c(Cl)c3)Oc3cc2cc(c3OC2OC(CO)C(O)C(O)C2OC2CC(C)(N)C(O)C(C)O2)Oc2ccc(cc2Cl)C1O (stereo not drawn) [Vanc-89] : what is it?
Reply text: 3.81

###

Test system: S. aureus VISA/HIP5827
Test: MIC, broth microdilution, vancomycin-intermediate S. aureus VISA HIP5827
Type: cell-based, Staphylococcus aureus
Conditions: Staphylococcus aureus VISA/HIP5827; read-out: MIC
readout: MIC (µM)
Your answer should be a plain number; it is taken to be in µM.

{"columns": ["compound", "MIC, µM"],
 "data": [
  ["CN[C@H](CC(C)C)C(=O)N[C@H]1C(=O)N[C@@H](CC(N)=O)C(=O)N[C@H]2C(=O)N[C@H]3C(=O)N[C@H](C(=O)N[C@H](C(=O)NCCNC(=O)/C=C/c4ccc(NS(=O)(=O)c5ccc(Cl)cc5Cl)cc4)c4cc(O)cc(O)c4-c4cc3ccc4O)[C@H](O)c3ccc(c(Cl)c3)Oc3cc2cc(c3O[C@@H]2O[C@H](CO)[C@@H](O)[C@H](O)[C@H]2O[C@H]2C[C@](C)(N)[C@H](O)[C@H](C)O2)Oc2ccc(cc2Cl)[C@H]1O", 0.78],
  ["CN[C@H](CC(C)C)C(=O)N[C@H]1C(=O)N[C@@H](CC(N)=O)C(=O)N[C@H]2C(=O)N[C@H]3C(=O)N[C@H](C(=O)N[C@H](C(=O)NCCNC(=O)/C=C/c4cccc(OC)c4)c4cc(O)cc(O)c4-c4cc3ccc4O)[C@H](O)c3ccc(c(Cl)c3)Oc3cc2cc(c3O[C@@H]2O[C@H](CO)[C@@H](O)[C@H](O)[C@H]2O[C@H]2C[C@](C)(N)[C@H](O)[C@H](C)O2)Oc2ccc(cc2Cl)[C@H]1O", 0.78],
  ["CN[C@H](CC(C)C)C(=O)N[C@H]1C(=O)N[C@@H](CC(N)=O)C(=O)N[C@H]2C(=O)N[C@H]3C(=O)N[C@H](C(=O)N[C@H](C(=O)NCC(=O)Nc4ccc(Nc5ccccc5)cc4)c4cc(O)cc(O)c4-c4cc3ccc4O)[C@H](O)c3ccc(c(Cl)c3)Oc3cc2cc(c3O[C@@H]2O[C@H](CO)[C@@H](O)[C@H](O)[C@H]2O[C@H]2C[C@](C)(N)[C@H](O)[C@H](C)O2)Oc2ccc(cc2Cl)[C@H]1O", 1.56],
  ["CN[C@H](CC(C)C)C(=O)N[C@H]1C(=O)N[C@@H](CC(N)=O)C(=O)N[C@H]2C(=O)N[C@H]3C(=O)N[C@H](C(=O)N[C@H](C(=O)NCC(=O)Nc4ccc(NS(=O)(=O)c5ccc(Cl)cc5Cl)cc4)c4cc(O)cc(O)c4-c4cc3ccc4O)[C@H](O)c3ccc(c(Cl)c3)Oc3cc2cc(c3O[C@@H]2O[C@H](CO)[C@@H](O)[C@H](O)[C@H]2O[C@H]2C[C@](C)(N)[C@H](O)[C@H](C)O2)Oc2ccc(cc2Cl)[C@H]1O", 0.78]
]}

Now take the following compound into account.
Inquiry: Would you mind telling me what MIC value was observed for CNC(CC(C)C)C(=O)NC1C(=O)NC(CC(N)=O)C(=O)NC2C(=O)NC3C(=O)NC(C(=O)NC(C(=O)NCC(=O)Nc4ccc(C(=O)c5ccccc5)cc4)c4cc(O)cc(O)c4-c4cc3ccc4O)C(O)c3ccc(c(Cl)c3)Oc3cc2cc(c3OC2OC(CO)C(O)C(O)C2OC2CC(C)(N)C(O)C(C)O2)Oc2ccc(cc2Cl)C1O (centres unmarked) ?
Reply text: 0.39

###

Recorded measurements of IC50, one per entry
Test system: L1210, CEM and HeLa cell lines
Experiment: Cytostatic activity, average or summary over L1210, CEM and HeLa
Assay type: cell-based
Settings: average of L1210, CEM and HeLa; read-out: Toxicity (IC50) Average
API: value field is a number in µM; no unit string.

{"columns": ["compound", "readout", "val"],
 "data": [
  ["CN[C@H](CC(C)C)C(=O)N[C@H]1C(=O)N[C@@H](CC(N)=O)C(=O)N[C@H]2C(=O)N[C@H]3C(=O)N[C@H](C(=O)N[C@H](C(=O)NCCNC(=O)/C=C/c4ccc(NS(=O)(=O)c5ccccc5)cc4)c4cc(O)cc(O)c4-c4cc3ccc4O)[C@H](O)c3ccc(c(Cl)c3)Oc3cc2cc(c3O[C@@H]2O[C@H](CO)[C@@H](O)[C@H](O)[C@H]2O[C@H]2C[C@](C)(N)[C@H](O)[C@H](C)O2)Oc2ccc(cc2Cl)[C@H]1O", "IC50", 185]
]}

Note: attention shifts to another entry.
Inquiry: Param readout = IC50; param system = L1210, CEM and HeLa cell lines; param query = CCOc1ccc(-c2ccc(NC(=O)CNC(=O)C3NC(=O)C4NC(=O)C(NC(=O)C5NC(=O)C(CC(N)=O)NC(=O)C(NC(=O)C(CC(C)C)NC)C(O)c6ccc(c(Cl)c6)Oc6cc5cc(c6OC5OC(CO)C(O)C(O)C5OC5CC(C)(N)C(O)C(C)O5)Oc5ccc(cc5Cl)C4O)c4ccc(O)c(c4)-c4c(O)cc(O)cc43)cc2)cc1 (stereo not drawn) ; response: value
Reply text: 5
